- assayed.system: T1, Peptide-2 (human, phosphothreonine 212, phosphothreonine 217 (tau 2N4R numbering); short chain biotin (SCBiot) and dPEG4 at the N-terminus; amide at the C-terminus)
- T1 construct: also called pT212/pT217-tau peptide (Peptide-2)
- T1 sequence (peptide, as listed by the source): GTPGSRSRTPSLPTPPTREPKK
- measurement.notes: SPR ProteOn, mAb captured, peptide as analyte; range of n=2; upper end of n=2 range
koff values for the binders below.
parameter.measured: koff (s⁻¹)

binder	reported.result
B252 (antibody, human IgG1, V domains shown, Humanized (HFA) PT3 variant, human IgG1/kappa; also called VH93/VL80) VH: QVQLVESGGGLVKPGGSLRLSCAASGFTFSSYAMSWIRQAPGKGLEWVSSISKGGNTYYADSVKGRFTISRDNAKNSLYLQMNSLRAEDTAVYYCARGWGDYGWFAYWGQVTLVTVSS VL: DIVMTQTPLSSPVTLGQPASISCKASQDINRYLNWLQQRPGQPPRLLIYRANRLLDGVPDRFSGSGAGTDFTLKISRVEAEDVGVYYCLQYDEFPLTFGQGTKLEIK	0.000946
B280 (antibody, human IgG1, V domains shown, Humanized (HFA) PT3 variant, human IgG1/kappa; also called VH91/VL80) VH: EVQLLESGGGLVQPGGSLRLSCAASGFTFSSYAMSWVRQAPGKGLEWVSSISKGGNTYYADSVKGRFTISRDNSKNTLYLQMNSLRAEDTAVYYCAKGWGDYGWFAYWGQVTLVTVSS VL: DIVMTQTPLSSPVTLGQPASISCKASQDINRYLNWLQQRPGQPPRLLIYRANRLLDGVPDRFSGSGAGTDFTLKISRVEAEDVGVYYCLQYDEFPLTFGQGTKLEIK	0.00301
B296 (antibody, human IgG1, kappa, V domains shown, Humanized PT3, human IgG1/kappa; also called VH92/VL77; HFA-PT3) VH: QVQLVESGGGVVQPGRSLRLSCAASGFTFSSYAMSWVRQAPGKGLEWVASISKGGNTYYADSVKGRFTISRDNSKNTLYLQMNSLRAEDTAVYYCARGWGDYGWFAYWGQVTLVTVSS VL: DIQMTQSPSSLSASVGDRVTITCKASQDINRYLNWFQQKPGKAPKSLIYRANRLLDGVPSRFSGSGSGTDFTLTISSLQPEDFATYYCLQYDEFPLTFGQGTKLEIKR	0.000863
B282 (antibody, human IgG1, V domains shown, Humanized (HFA) PT3 variant, human IgG1/kappa; also called VH93/VL77) VH: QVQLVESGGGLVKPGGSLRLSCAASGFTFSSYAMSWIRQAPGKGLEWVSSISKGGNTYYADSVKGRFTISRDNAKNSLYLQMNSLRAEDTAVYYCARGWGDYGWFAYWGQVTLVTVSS VL: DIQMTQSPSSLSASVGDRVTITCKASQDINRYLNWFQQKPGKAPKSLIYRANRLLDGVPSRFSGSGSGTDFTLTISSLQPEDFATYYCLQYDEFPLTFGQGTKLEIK	0.0014
